Origin of the recorded values: the supplement of paper PMC10567573

B1: TMEM40 (parent)
chain: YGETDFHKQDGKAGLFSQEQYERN

variants of: B1; assay: protein stability index of a GFP-peptide fusion (GPS, HEK-293T) (PSI 1-6); higher = more stable; conditions: c terminus: a fixed tail appended;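 further: lentivirally expressed fusions sorted by FACS into six bins by GFP to DsRed ratio, PSI derived from sequencing read proportions per bin multiplied by bin number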
Class Yes: protein stability index at least 4. Class No: protein stability index below 4.

{"MUTANT DESIGNATION": "K12E", "CATEGORY": "Yes"}
{"MUTANT DESIGNATION": "A13Y", "CATEGORY": "No"}
{"MUTANT DESIGNATION": "S17F", "CATEGORY": "No"}
{"MUTANT DESIGNATION": "D5Y", "CATEGORY": "No"}
{"MUTANT DESIGNATION": "K8E", "CATEGORY": "Yes"}
{"MUTANT DESIGNATION": "E22Y", "CATEGORY": "No"}
{"MUTANT DESIGNATION": "D10H", "CATEGORY": "No"}
{"MUTANT DESIGNATION": "D5V", "CATEGORY": "No"}
{"MUTANT DESIGNATION": "S17A", "CATEGORY": "No"}
{"MUTANT DESIGNATION": "A13F", "CATEGORY": "No"}
{"MUTANT DESIGNATION": "K8S", "CATEGORY": "Yes"}
{"MUTANT DESIGNATION": "H7T", "CATEGORY": "Yes"}
{"MUTANT DESIGNATION": "Q9T", "CATEGORY": "No"}
{"MUTANT DESIGNATION": "Y1L", "CATEGORY": "Yes"}
{"MUTANT DESIGNATION": "E19L", "CATEGORY": "No"}
{"MUTANT DESIGNATION": "Y1E", "CATEGORY": "Yes"}
{"MUTANT DESIGNATION": "E22L", "CATEGORY": "No"}
{"MUTANT DESIGNATION": "Q18A", "CATEGORY": "No"}
{"MUTANT DESIGNATION": "F6G", "CATEGORY": "Yes"}
{"MUTANT DESIGNATION": "E22I", "CATEGORY": "No"}
{"MUTANT DESIGNATION": "T4D", "CATEGORY": "Yes"}
{"MUTANT DESIGNATION": "Y1S", "CATEGORY": "Yes"}
{"MUTANT DESIGNATION": "L15N", "CATEGORY": "Yes"}
{"MUTANT DESIGNATION": "S17Y", "CATEGORY": "No"}
{"MUTANT DESIGNATION": "F6C", "CATEGORY": "Yes"}
{"MUTANT DESIGNATION": "L15V", "CATEGORY": "Yes"}
{"MUTANT DESIGNATION": "H7W", "CATEGORY": "No"}
{"MUTANT DESIGNATION": "R23T", "CATEGORY": "Yes"}
{"MUTANT DESIGNATION": "Y21V", "CATEGORY": "Yes"}
{"MUTANT DESIGNATION": "K8D", "CATEGORY": "Yes"}
{"MUTANT DESIGNATION": "G2I", "CATEGORY": "No"}
{"MUTANT DESIGNATION": "S17R", "CATEGORY": "Yes"}
{"MUTANT DESIGNATION": "G2Q", "CATEGORY": "No"}
{"MUTANT DESIGNATION": "F6T", "CATEGORY": "Yes"}
{"MUTANT DESIGNATION": "E19P", "CATEGORY": "No"}
{"MUTANT DESIGNATION": "D5C", "CATEGORY": "No"}
{"MUTANT DESIGNATION": "Q20F", "CATEGORY": "No"}
{"MUTANT DESIGNATION": "D10P", "CATEGORY": "No"}
{"MUTANT DESIGNATION": "K8Q", "CATEGORY": "Yes"}
{"MUTANT DESIGNATION": "G14Q", "CATEGORY": "Yes"}
{"MUTANT DESIGNATION": "N24E", "CATEGORY": "Yes"}
{"MUTANT DESIGNATION": "S17T", "CATEGORY": "No"}
{"MUTANT DESIGNATION": "Q9D", "CATEGORY": "Yes"}
{"MUTANT DESIGNATION": "Q18H", "CATEGORY": "Yes"}
{"MUTANT DESIGNATION": "Y21D", "CATEGORY": "Yes"}
{"MUTANT DESIGNATION": "G11D", "CATEGORY": "Yes"}
{"MUTANT DESIGNATION": "G2H", "CATEGORY": "No"}
{"MUTANT DESIGNATION": "E19F", "CATEGORY": "No"}
{"MUTANT DESIGNATION": "K8T", "CATEGORY": "Yes"}
{"MUTANT DESIGNATION": "G11W", "CATEGORY": "No"}
{"MUTANT DESIGNATION": "H7K", "CATEGORY": "Yes"}
{"MUTANT DESIGNATION": "K8G", "CATEGORY": "Yes"}
{"MUTANT DESIGNATION": "R23N", "CATEGORY": "Yes"}
{"MUTANT DESIGNATION": "Q9Y", "CATEGORY": "No"}
{"MUTANT DESIGNATION": "K12L", "CATEGORY": "No"}
{"MUTANT DESIGNATION": "Q18Y", "CATEGORY": "No"}
{"MUTANT DESIGNATION": "F6D", "CATEGORY": "Yes"}
{"MUTANT DESIGNATION": "E3N", "CATEGORY": "No"}
{"MUTANT DESIGNATION": "N24I", "CATEGORY": "No"}
{"MUTANT DESIGNATION": "A13T", "CATEGORY": "Yes"}
{"MUTANT DESIGNATION": "K8W", "CATEGORY": "No"}
{"MUTANT DESIGNATION": "F6A", "CATEGORY": "Yes"}
{"MUTANT DESIGNATION": "F16H", "CATEGORY": "Yes"}
{"MUTANT DESIGNATION": "F16M", "CATEGORY": "Yes"}
{"MUTANT DESIGNATION": "Y1F", "CATEGORY": "Yes"}
{"MUTANT DESIGNATION": "K12M", "CATEGORY": "Yes"}
{"MUTANT DESIGNATION": "K12G", "CATEGORY": "Yes"}
{"MUTANT DESIGNATION": "G11Y", "CATEGORY": "No"}
{"MUTANT DESIGNATION": "Q9I", "CATEGORY": "No"}
{"MUTANT DESIGNATION": "H7G", "CATEGORY": "Yes"}
{"MUTANT DESIGNATION": "Y1Q", "CATEGORY": "Yes"}
{"MUTANT DESIGNATION": "K8F", "CATEGORY": "No"}
{"MUTANT DESIGNATION": "T4F", "CATEGORY": "Yes"}
{"MUTANT DESIGNATION": "Q20P", "CATEGORY": "No"}
{"MUTANT DESIGNATION": "R23C", "CATEGORY": "Yes"}
{"MUTANT DESIGNATION": "L15K", "CATEGORY": "Yes"}
